For each record, write down the corresponding Incidence: Number of mice with pulmonary fibrosis.
Tested on: pulmonary fibrosis
Assay: Pulmonary toxicity (pulmonary fibrosis) in mice
Conditions: ICR mice, 5 mg/kg i.p. once a day for 10 days, 5 weeks observation; mice with fibrosis/total

Observe how each entry below is paired with its result.
CCCCCCCCNC(=O)C(N)CNC(CC(N)=O)c1nc(N)c(C)c(C(=O)NC(C(=O)NC(C)C(O)C(C)C(=O)NC(C(=O)NCCc2nc(-c3nc(C(=O)NCCCN(C)CCCN(Cc4ccc(OCc5ccccc5)c(OCc5ccccc5)c4)Cc4ccc(OCc5ccccc5)c(OCc5ccccc5)c4)cs3)cs2)C(C)O)C(OC2OC(CO)C(O)C(O)C2OC2OC(CO)C(O)C(OC(N)=O)C2O)c2cnc[nH]2)n1 (stereo not drawn); 0/9
CCCCCCCCNC(=O)C(N)CNC(CC(N)=O)c1nc(N)c(C)c(C(=O)NC(C(=O)NC(C)C(O)C(C)C(=O)NC(C(=O)NCCc2nc(-c3nc(C(=O)NCCCN(C)CCCNCc4ccc(C#N)cc4)cs3)cs2)C(C)O)C(OC2OC(CO)C(O)C(O)C2OC2OC(CO)C(O)C(OC(N)=O)C2O)c2cnc[nH]2)n1 (stereo not drawn); 0/9
Cc1c(N)nc(C(CC(N)=O)NCC(N)C(=O)NCc2ccccc2)nc1C(=O)NC(C(=O)NC(C)C(O)C(C)C(=O)NC(C(=O)NCCc1nc(-c2nc(C(=O)NCCC[N+](C)(CCCN(Cc3ccccc3)Cc3ccccc3)Cc3ccccc3)cs2)cs1)C(C)O)C(OC1OC(CO)C(O)C(O)C1OC1OC(CO)C(O)C(OC(N)=O)C1O)c1cnc[nH]1 (stereo not drawn); 0/8
CCCCCCCCNC(=O)C(N)CNC(CC(N)=O)c1nc(N)c(C)c(C(=O)NC(C(=O)NC(C)C(O)C(C)C(=O)NC(C(=O)NCCc2nc(-c3nc(C(=O)NCCCN(C)CCCNCC4CCCCCCC4)cs3)cs2)C(C)O)C(OC2OC(CO)C(O)C(O)C2OC2OC(CO)C(O)C(OC(N)=O)C2O)c2cnc[nH]2)n1 (stereo not drawn); 0/9
CCCCCCCCNC(=O)C(N)CNC(CC(N)=O)c1nc(N)c(C)c(C(=O)NC(C(=O)NC(C)C(O)C(C)C(=O)NC(C(=O)NCCc2nc(-c3nc(C(=O)NCCC[N+](C)(CCCN(Cc4ccccc4)Cc4ccccc4)Cc4ccccc4)cs3)cs2)C(C)O)C(OC2OC(CO)C(O)C(O)C2OC2OC(CO)C(O)C(OC(N)=O)C2O)c2cnc[nH]2)n1 (stereo not drawn); 0/8
Cc1c(N)nc(C(CC(N)=O)NCC(N)C(=O)NCCCNC(C)c2ccccc2)nc1C(=O)NC(C(=O)NC(C)C(O)C(C)C(=O)NC(C(=O)NCCc1nc(-c2nc(C(=O)NCCC[N+](C)(CCCN(Cc3ccccc3)Cc3ccccc3)Cc3ccccc3)cs2)cs1)C(C)O)C(OC1OC(CO)C(O)C(O)C1OC1OC(CO)C(O)C(OC(N)=O)C1O)c1cnc[nH]1 (stereo not drawn); 0/8
CCCCN(CCCC)CCCNC(=O)C(N)CNC(CC(N)=O)c1nc(N)c(C)c(C(=O)NC(C(=O)NC(C)C(O)C(C)C(=O)NC(C(=O)NCCc2nc(-c3nc(C(=O)NCCC[N+](CC)(CC)CCCN(Cc4ccccc4)Cc4ccccc4)cs3)cs2)C(C)O)C(OC2OC(CO)C(O)C(O)C2OC2OC(CO)C(O)C(OC(N)=O)C2O)c2cnc[nH]2)n1 (stereo not drawn); 0/9
Cc1c(N)nc(C(CC(N)=O)NCC(N)C(=O)NCCN2CCNCC2)nc1C(=O)NC(C(=O)NC(C)C(O)C(C)C(=O)NC(C(=O)NCCc1nc(-c2nc(C(=O)NCCCNC(C)c3ccccc3)cs2)cs1)C(C)O)C(OC1OC(CO)C(O)C(O)C1OC1OC(CO)C(O)C(OC(N)=O)C1O)c1cnc[nH]1 (stereo not drawn); 5/9
CCCCNCCCN(C)CCCNC(=O)c1csc(-c2csc(CCNC(=O)C(NC(=O)C(C)C(O)C(C)NC(=O)C(NC(=O)c3nc(C(CC(N)=O)NCC(N)C(=O)NC(C)C)nc(N)c3C)C(OC3OC(CO)C(O)C(O)C3OC3OC(CO)C(O)C(OC(N)=O)C3O)c3cnc[nH]3)C(C)O)n2)n1 (stereo not drawn); 3/9
Cc1c(N)nc(C(CC(N)=O)NCC(N)C(=O)NC(C)C)nc1C(=O)NC(C(=O)NC(C)C(O)C(C)C(=O)NC(C(=O)NCCc1nc(-c2nc(C(=O)NCCCNC(C)c3ccccc3)cs2)cs1)C(C)O)C(OC1OC(CO)C(O)C(O)C1OC1OC(CO)C(O)C(OC(N)=O)C1O)c1cnc[nH]1 (stereo not drawn); 3/8

Below are 2 molecules. Give each one its Incidence: Number of mice with pulmonary fibrosis.
1. CCCCNCCCN(C)CCCNC(=O)c1csc(-c2csc(CCNC(=O)C(NC(=O)C(C)C(O)C(C)NC(=O)C(NC(=O)c3nc(C(CC(N)=O)NCC(N)C(=O)NCCCN(C)CCCNCCCC)nc(N)c3C)C(OC3OC(CO)C(O)C(O)C3OC3OC(CO)C(O)C(OC(N)=O)C3O)c3cnc[nH]3)C(C)O)n2)n1 (stereo not drawn)
2. Cc1c(N)nc(C(CC(N)=O)NCC(N)C(=O)NCCCNC(C)c2ccccc2)nc1C(=O)NC(C(=O)NC(C)C(O)C(C)C(=O)NC(C(=O)NCCc1nc(-c2nc(C(=O)NCCC[N+](C)(C)CCCN(Cc3ccccc3)Cc3ccccc3)cs2)cs1)C(C)O)C(OC1OC(CO)C(O)C(O)C1OC1OC(CO)C(O)C(OC(N)=O)C1O)c1cnc[nH]1 (stereo not drawn)

5/7
0/9
